Items are presented alongside their recorded pIC50.
- assay system: hNAMPT protein (Homo sapiens (Human), UniProt P43490)
- Sequence (P43490 whole entry): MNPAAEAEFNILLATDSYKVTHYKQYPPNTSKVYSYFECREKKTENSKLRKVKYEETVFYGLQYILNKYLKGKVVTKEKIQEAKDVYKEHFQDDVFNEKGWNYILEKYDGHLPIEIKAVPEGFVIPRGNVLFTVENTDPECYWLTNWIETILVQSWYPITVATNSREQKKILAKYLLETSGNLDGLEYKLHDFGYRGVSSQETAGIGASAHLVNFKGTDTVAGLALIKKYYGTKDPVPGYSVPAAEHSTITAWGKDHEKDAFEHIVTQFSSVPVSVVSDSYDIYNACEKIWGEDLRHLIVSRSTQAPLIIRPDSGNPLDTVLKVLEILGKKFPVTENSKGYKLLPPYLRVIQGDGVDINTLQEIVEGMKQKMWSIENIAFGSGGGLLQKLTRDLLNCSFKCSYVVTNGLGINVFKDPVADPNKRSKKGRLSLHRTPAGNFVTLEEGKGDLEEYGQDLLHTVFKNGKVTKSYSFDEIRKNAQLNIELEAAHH
pIC50: −log10 of the molar value.

# structure string, outcome measure, data value
measured = [
    ("CCOc1nc(-c2ccc(Cl)s2)nc2cc(C(=O)NCc3ccc4nccn4c3)ccc12", "pIC50", "> 8.00"),
]

In: // lookup pIC50 | system=hNAMPT protein (Homo sapiens (Human), UniProt P43490) | key= CCOc1cc(-c2cc(OC)ncc2F)nc2cc(C(=O)NCCCc3[nH]nnc3C)ccc12
Out: 7.30 to 8.00

In: And the next one, CCOc1cc(-c2ccnc(C)c2)nc2cc(C(=O)NCCc3c[nH]nc3C)ccc12 ?
Out: 7.00 to 7.30

In: And the next one, CCOc1cc(-c2cc(F)ccc2OC)nc2cc(C(=O)NCCc3cnn[nH]3)ccc12 ?
Out: 7.00 to 7.30

In: And the next one, CCOc1cc(-c2ccc(OC)nc2)nc2cc(C(=O)NCCc3cn[nH]c3C)ccc12 ?
Out: 7.30 to 8.00

In: And the next one, CCOc1cc(-c2cncc(OC)c2)nc2cc(C(=O)NCCCc3nnc[nH]3)ccc12 ?
Out: 7.30 to 8.00

----------
- System: PC3 cells
- assay summary: PC3 growth inhibition (Cell-titer glo, 72 hours)
- Type: cell-based
- assay setup: Homo sapiens, PC-3, 72 h, read-out: Percent Viability, PC3 cells, compound concentration 1.667 μM, 72 hours
Items are presented alongside their recorded viability at 1.667 µM.
// return numeric value only (unit: %, not printed)

Below: 3 compounds and their reported viability at 1.667 µM.
# structure string, data value
measured = [
    ("CCOc1cc(-c2cncnc2)nc2cc(C(=O)NCCCc3nnc[nH]3)ccc12", 2),
    ("CCOc1cc(-c2ccc(F)cc2)nc2cc(C(=O)NCCCn3cccn3)ccc12", 77),
    ("COCCOc1cc(-c2ccc(F)cc2)nc2cc(C(=O)NCCc3c[nH]nc3C)ccc12", 2),
]

In: Quick check: viability at 1.667 µM of CCOc1cc(C2=CCOCC2)nc2cc(C(=O)NCCCc3nnc[nH]3)ccc12 ?
Out: 2

In: And the next one, CCOc1cc(-c2cc(F)ccc2OC)nc2cc(C(=O)NCCc3cnn[nH]3)ccc12 ?
Out: 6

In: And the next one, COCCOc1cc(-c2ccc(F)cc2)nc2cc(C(=O)NCc3ccn4ncnc4c3)ccc12 ?
Out: 2

In: And the next one, COCCOc1cc(-c2ccc(F)cc2)nc2cc(C(=O)NCC(F)(F)Cc3nnc[nH]3)ccc12 ?
Out: 2

In: And the next one, CCOc1cc(-c2ccc(F)cc2)nc2cc(C(=O)NCCc3c[nH]nc3C)ccc12 ?
Out: 3

----------
- Tested on: PC3 cells
- assay summary: PC3 growth inhibition (Cell-titer glo, 72 hours)
- Format: cell-based
- assay setup: Homo sapiens, PC-3, 72 h, read-out: Percent Viability, PC3 cells, compound concentration 1.667 μM, 72 hours
Items are presented alongside their recorded viability at 1.667 µM.

# structure string, assay system, viability at 1.667 µM
rows = [
    ("CCOc1cc(-c2cccnc2)nc2cc(C(=O)NCCCc3nnc[nH]3)ccc12", "PC3 cells", "1%"),
    ("CCOc1cc(-c2ccnc(OC)c2)nc2cc(C(=O)NCCCc3nnc[nH]3)ccc12", "PC3 cells", "2%"),
    ("CCOc1cc(-c2ccncc2C)nc2cc(C(=O)NCCCc3nnc[nH]3)ccc12", "PC3 cells", "1%"),
    ("CCOc1cc(-c2cccnc2OC)nc2cc(C(=O)NCCCc3ccn[nH]3)ccc12", "PC3 cells", "2%"),
    ("CCOc1cc(-c2ccc(C)nc2)nc2cc(C(=O)NCCCc3nnc[nH]3)ccc12", "PC3 cells", "2%"),
]

In: Quick check: viability at 1.667 µM of CCOc1c(F)c(-c2ccnc(OC)c2)nc2cc(C(=O)NCCCc3[nH]nnc3C)ccc12 ?
Out: 1%

In: And the next one, COCCOc1cc(-c2ccc(F)cc2)nc2cc(C(=O)NCCCc3cc[nH]n3)ccc12 ?
Out: 2%

In: And the next one, CCOc1cc(-c2ccc(C)nc2OC)nc2cc(C(=O)NCCCc3ccn[nH]3)ccc12 ?
Out: 2%

----------
- assay system: hNAMPT protein (Homo sapiens (Human))
- assay summary: NAMPT enzyme assay (TR-FRET/HTRF with BodiPY ligand)
- Format: binding
- assay setup: NAMPT inhibition at compound concentration 1 μM; read-out: Percent Inhibition
Items are presented alongside their recorded inhibition at 1 µM.
// return numeric value only (unit: %, not printed)

Below: 4 compounds and their reported inhibition at 1 µM.
# structure string, inhibition at 1 µM / %
rows = [
    ("Cc1cc(-c2cc(-c3ccc(F)cc3)c3ccc(C(=O)NCCCc4nnc[nH]4)cc3n2)ccn1", 89),
    ("COCCOc1cc(-c2ccc(F)cc2)nc2cc(C(=O)NCc3ccn4ncnc4c3)ccc12", 100),
    ("CCOc1cc(-c2ccncc2)nc2cc(C(=O)NCCCc3nnc[nH]3)ccc12", 97),
    ("CCOc1cc(-c2ccc(F)cc2)nc2cc(C(=O)NCc3cc4cnccc4s3)ccc12", 99),
]

In: Quick check: inhibition at 1 µM of CCOc1cc(-c2cccc(C(F)(F)F)c2)nc2cc(C(=O)NCCCc3nnc[nH]3)ccc12 ?
Out: 93

In: And the next one, CCOc1cc(-c2cnc(Cl)cc2C)nc2cc(C(=O)NCCCc3nnc[nH]3)ccc12 ?
Out: 50

In: And the next one, CCOc1cc(-c2cccnc2OC)nc2cc(C(=O)NCCCc3cnn[nH]3)ccc12 ?
Out: 100

In: And the next one, O=C(NCCCc1ncc[nH]1)c1ccc2c(CN3CCSCC3)nc(-c3ccc(Cl)cc3)nc2c1 ?
Out: 89

In: And the next one, CCc1nc(-c2ccc(Cl)cc2)nc2cc(C(=O)NCCCc3ncc[nH]3)ccc12 ?
Out: 97

In: And the next one, CCCc1cc(OCC)c2ccc(C(=O)NCCCc3ncc[nH]3)cc2n1 ?
Out: 86

In: And the next one, CCOc1cc(-c2ccc(F)cc2)nc2cc(C(=O)N[C@H]3C[C@@H](c4nnc[nH]4)C3)ccc12 ?
Out: 96

In: And the next one, CCOc1cc(-c2cc(OC)ncc2F)nc2cc(C(=O)NCCCc3nnc[nH]3)ccc12 ?
Out: 97

In: And the next one, CCOc1cc(-c2ccc(F)cc2)nc2cc(C(=O)NCc3cc4[nH]ncc4s3)ccc12 ?
Out: 98

In: And the next one, CCOc1cc(-c2ccnc(OC)c2)nc2cc(C(=O)NCCc3cnn[nH]3)ccc12 ?
Out: 89

In: And the next one, CCOc1cc(N2CCCC2)nc2cc(C(=O)NCCCc3ncc[nH]3)ccc12 ?
Out: 95

In: And the next one, CCOc1cc(-c2ccc(OC)nc2)nc2cc(C(=O)NCCCc3ccn[nH]3)ccc12 ?
Out: 96

----------
Items are presented alongside their recorded inhibition at 1 µM.
- assay system: hNAMPT protein (Homo sapiens (Human), UniProt P43490)
- assay summary: NAMPT enzyme assay (TR-FRET/HTRF with BodiPY ligand)
- Type: binding
- assay setup: NAMPT inhibition at compound concentration 1 μM; read-out: Percent Inhibition
// return numeric value only (unit: %, not printed)

Below: 5 compounds and their reported inhibition at 1 µM.
# compound, data value
measured = [
    ("COCCOc1cc(-c2ccc(F)cc2)nc2cc(C(=O)NCCCc3ncn[nH]3)ccc12 [Compound I-124]", 92),
    ("COCCOc1cc(-c2ccc(F)cc2)nc2cc(C(=O)NCCCc3ncc[nH]3)ccc12 [Compound I-156]", 100),
    ("CCOc1cc(-c2ccc(F)cc2OC)nc2cc(C(=O)NCCCc3nnc[nH]3)ccc12 [Compound I-165]", 99),
    ("COCCOc1cc(-c2ccc(F)cc2)nc2cc(C(=O)NCCc3c[nH]nc3C)ccc12 [Compound I-126]", 91),
    ("CCOc1cc(-c2ccnc(OC)c2Cl)nc2cc(C(=O)NCCCc3nnc[nH]3)ccc12 [Compound I-166]", 94),
]

In: Quick check: inhibition at 1 µM of CCCc1nc(-c2ccc(F)cc2)nc2cc(C(=O)NCCCc3ncc[nH]3)ccc12 [Compound I-16] ?
Out: 100

In: And the next one, CCOc1cc(-c2ccnc(OC)c2)nc2cc(C(=O)NCCCc3nnc[nH]3)ccc12 [Compound I-114] ?
Out: 97

In: And the next one, COCCOc1cc(-c2ccc(F)cc2)nc2cc(C(=O)NCCCc3cc[nH]n3)ccc12 [Compound I-120] ?
Out: 94

In: And the next one, CCOc1cc(-c2cncnc2)nc2cc(C(=O)NCCCc3nnc[nH]3)ccc12 [Compound I-208] ?
Out: 86

In: And the next one, CCCc1nc(-c2ccc(Cl)cc2)nc2cc(C(=O)NCc3nc4ccncc4[nH]3)ccc12 [Compound I-9] ?
Out: 93

In: And the next one, CCOc1cc(-c2ccc(F)cc2)nc2cc(C(=O)NCc3ccn4ncnc4c3)ccc12 [Compound I-130] ?
Out: 100

In: And the next one, CCOc1nc(-c2ccc(Cl)s2)nc2cc(C(=O)NCc3ccc4nccn4c3)ccc12 [Compound I-28] ?
Out: 99

In: And the next one, CCOc1cc(-c2ccc(C)nc2OC)nc2cc(C(=O)NCCCc3ccn[nH]3)ccc12 [Compound I-104] ?
Out: 95
